Assay: HepG2 cell cytotoxicity, dose response, cytotoxicity control, luminescence, dry powder, set 12 (AID 743471)
Settings: HepG2 viability, ATP luminescence (CellTiter-Glo), 72 h; at 12 µM (top of the series)
Measurement Type: activity change, negative = cytotoxicity (%)
Answers are plain numbers, in %.

Examples with answers:
C[C@@]1(C(=O)Nc2ccc(F)nc2)CCCN1c1nc(Nc2cc(C3CC3)[nH]n2)c2cccn2n1    -31.6
COc1ccc(OC)c(-c2nnc3n2N=C(c2ccc(OC)c(OC)c2)CS3)c1    -16.5
O=C(Cc1ccc(-c2ccc(OCCN3CCOCC3)cc2)cn1)NCc1ccccc1    -10.2

Moving on to the next molecule.
response.value for COc1ccc(NC(=O)Nc2ccc3c(c2)C(=O)N([C@@H](C)CO)C[C@H](C)[C@H](CN(C)Cc2ccc4c(c2)OCO4)O3)cc1 (field: activity change, negative = cytotoxicity) = -13.2

* * *

Assay: HepG2 cell cytotoxicity, dose response, cytotoxicity control, luminescence, dry powder, set 12 (AID 743471)
Conditions: HepG2 viability, ATP luminescence (CellTiter-Glo), 72 h; at 26 µM (top of the series)
Measurement Type: activity change, negative = cytotoxicity (%)
One number for each entry, in %.

Examples with answers:
Cc1ccc(S(=O)(=O)N2CC[C@@H]3[C@@H](CO)Nc4ccc(-c5ccc(C#N)cc5)cc4[C@@H]32)cc1    -7.83
Cc1cccc(C2C(C#N)=C(N)Oc3cc(N)ccc32)c1 (centres undefined)    -14.7
COc1ccc(C2CNC(=O)C2)cc1OC1CCCC1 (centres undefined)    15.7

Count: 4. Required value per item: activity change, negative = cytotoxicity.
1. N#CC1=C(N)Oc2cc(OC(=O)c3ccccc3)ccc2C1c1cccc(Br)c1 (centres undefined)
2. CN1c2ccc(-c3ccc(C#N)cc3)cc2[C@H]2[C@H](CCN2S(=O)(=O)c2cccc(F)c2)[C@H]1CO
3. COc1ccccc1C1C(C#N)=C(N)Oc2cc(N)ccc21 (centres undefined)
4. N#CC1=C(N)Oc2cc(N)ccc2C12C(=O)Nc1ccc(Br)cc12 (centres undefined)

Reply:
[-8.31, -20.9, 4.04, -10.7]

* * *

Experiment: HepG2 cell cytotoxicity, dose response, cytotoxicity control, luminescence, dry powder, set 12 (AID 743471)
Conditions: HepG2 viability, ATP luminescence (CellTiter-Glo), 72 h; at 26 µM (top of the series)
Measurement Type: activity change, negative = cytotoxicity (%)
Answers are plain numbers, in %.

Examples with answers:
N#CC1=C(N)Oc2cc(N)ccc2C1c1cccc(F)c1 (stereo not drawn)    -15.7
COc1ccccc1S(=O)(=O)N1CC[C@@H]2[C@@H](CO)Nc3ccc(-c4ccc(C#N)cc4)cc3[C@@H]21    -11.4
COC(=O)c1ccc(C2C(C#N)=C(N)Oc3cc(N)ccc32)cc1 (stereo not drawn)    6.98
COc1ccc(S(=O)(=O)N(C(C)=O)c2ccc(OC(C)=O)c3ccccc23)cc1[N+](=O)[O-]    -15.5
Cc1ccc([N+](=O)[O-])cc1S(=O)(=O)N(C)C    -2.85
COc1cc(C2C(C#N)=C(N)Oc3cc(N(C)C)ccc32)cc2c1OCO2 (stereo not drawn)    -11.7
O=C(Nc1c(Cl)cncc1Cl)c1ccc(OC(F)F)c(OCC2CC2)c1    5.78
COc1cccc(C2C(C#N)=C(N)Oc3cc(N)ccc32)c1 (stereo not drawn)    -11.2
C[C@]1(c2nc3c(C(N)=O)cccc3[nH]2)CCCN1    -5.99
COc1ccc(CNc2nc(N3CCC[C@H]3CO)ncc2C(=O)NCc2ncccn2)cc1Cl    -10.6

Count: 7. Required value per item: activity change, negative = cytotoxicity.
1. N#CC1=C(N)Oc2cc(N)ccc2C1c1cccc(Br)c1 (stereo not drawn)
2. CN1c2ccc(-c3ccc(C#N)cc3)cc2[C@H]2[C@H](CCN2S(=O)(=O)c2ccc(F)cc2)[C@H]1CO
3. Cc1ccccc1C1C(C#N)=C(N)Oc2cc(N)ccc21 (stereo not drawn)
4. COc1ccccc1-c1nnc2n1N=C(c1ccc3c(c1)OCO3)CS2
5. CCC(C)(C)C(=O)O[C@H]1C[C@@H](C)C=C2C=C[C@H](C)[C@H](CC[C@@H]3C[C@@H](O)CC(=O)O3)[C@H]21
6. CCCCc1ccc2nc(NC(=O)OC)[nH]c2c1
7. Clc1ccccc1-c1nnc2n1N=C(c1ccc3c(c1)OCO3)CS2

Reply:
-3.92
20.9
0.564
-11.4
1.04
-18.5
-25.1

response.value for N#CC1=C(N)Oc2cc(N)ccc2C1c1ccccc1Cl (stereo not drawn) (field: activity change, negative = cytotoxicity) = -2.14
